EXPERIMENTAL_SYSTEM: P2Y12R (WT) (Homo sapiens, UniProt Q9H244, N159A)
Sequence (Q9H244 whole entry N159A): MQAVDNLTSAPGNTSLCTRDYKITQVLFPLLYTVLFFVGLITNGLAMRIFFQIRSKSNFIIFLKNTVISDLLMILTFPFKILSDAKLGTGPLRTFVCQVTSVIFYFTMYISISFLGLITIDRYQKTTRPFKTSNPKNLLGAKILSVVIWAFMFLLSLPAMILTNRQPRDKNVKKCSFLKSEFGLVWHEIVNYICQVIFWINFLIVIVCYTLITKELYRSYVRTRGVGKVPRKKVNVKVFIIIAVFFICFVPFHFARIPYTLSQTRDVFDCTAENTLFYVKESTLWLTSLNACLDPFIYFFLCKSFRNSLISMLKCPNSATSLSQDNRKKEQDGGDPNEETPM
METHOD_DESCRIPTION: saturation radioligand binding, membranes
MEASURE: pKd
pKd is a log-scale quantity: -log10 of the concentration expressed in molar.

(Q) Provide only the value of recorded pKd for CSc1nc(N)c2ncn([C@@H]3O[C@H](COP(=O)(O)OP(=O)(O)O)[C@@H](O)[C@H]3O)c2n1 [2MeSADP, 2-methylthio-adenosine 5′-diphosphate]
(A) 8.19

###

EXPERIMENTAL_SYSTEM: P2Y12R (WT) (Homo sapiens, UniProt Q9H244, S156A)
Sequence (Q9H244 whole entry S156A): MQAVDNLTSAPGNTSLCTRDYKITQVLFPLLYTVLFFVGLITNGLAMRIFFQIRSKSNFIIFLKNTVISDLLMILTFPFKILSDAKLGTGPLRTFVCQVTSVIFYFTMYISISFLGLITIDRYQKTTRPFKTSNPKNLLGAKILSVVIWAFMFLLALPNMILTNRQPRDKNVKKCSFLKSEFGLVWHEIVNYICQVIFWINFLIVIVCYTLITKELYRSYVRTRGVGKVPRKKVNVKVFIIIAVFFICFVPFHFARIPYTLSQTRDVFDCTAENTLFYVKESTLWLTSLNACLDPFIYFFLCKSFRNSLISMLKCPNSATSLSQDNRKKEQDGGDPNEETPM
METHOD_DESCRIPTION: saturation radioligand binding, membranes
MEASURE: pKd
pKd is a log-scale quantity: -log10 of the concentration expressed in molar.

(Q) Provide only the value of recorded pKd for CSc1nc(N)c2ncn([C@@H]3O[C@H](COP(=O)(O)OP(=O)(O)O)[C@@H](O)[C@H]3O)c2n1 [2MeSADP, 2-methylthio-adenosine 5′-diphosphate]
(A) 8.25
